Test system: NOMO1
Assay: cell viability relative to DMSO control; higher = less cytotoxic
Conditions: RPMI 5 mM glucose + 10% dialyzed FBS; 48 h; 0.0632 µM
Each entry below carries its reported cell viability.
readout.kind: cell viability (%)

1) N[C@H]2CN(CC12CC1)c3c(F)cc4c(c3Cl)[N@@](C=C(C4=O)C(=O)O)C5C[C@H]5F (some centres undefined)	98.1
2) CC(=O)N[C@@H]1[C@@H](NC(N)=N)\C=C(/O[C@H]1[C@H](O)[C@H](O)CO)C(O)=O	117
3) CCN1\C=C(\C(O)=O)C(=O)C2=C1N=C(N3CCNCC3)C(=C2)F	79.2
4) Cc1ccc([N+](=O)[O-])cc1[S+](=O)([O-])N(C)/N=C/c1cnc2ccc(Br)cn12	76.1
5) CCOC(=O)[C@@]1(CCCCCCOc2ccc(Cl)cc2)CO1	111
6) CCc1cc2c(cc1N1CCC(N3CCOCC3)CC1)C(C)(C)c1[nH]c3cc(C#N)ccc3c1C2=O	125
7) COc1cccc2c1C(=O)c1c(O)c3c(c(O)c1C2=O)C[C@@](O)(C(=O)CO)C[C@@H]3O[C@H]1C[C@H](N)[C@H](O[C@H]2CCCCO2)[C@H](C)O1	104
8) O=C(Nc1nnc(-c2ccco2)o1)c1cc(-c2ccccc2)nc2ccccc12	103
9) CCN1C[C@H](C)[N]2C(=C(O)C3=C2\C(=N/N(CC4=CC=C(F)C(=C4)Cl)C3=O)C(=O)NC)C1=O	118
10) CC1=C(/C=C/C(C)=C/C=C/C(C)=C\C(=O)O)C(C)(C)CCC1	93.2
11) C=C1C(=O)OC(CCCCCCCC)C1C(=O)O (centres undefined)	135
12) Cc1cn([C@H]2C=C[C@@H](CO)O2)c(=O)[nH]c1=O	125
13) NC[C@@H]1O[C@H](O[C@H]2[C@@H](O)[C@H](O[C@@H]3[C@@H](O)[C@H](N)C[C@H](N)[C@H]3O[C@H]3O[C@H](CN)[C@@H](O)[C@H](O)[C@H]3N)O[C@@H]2CO)[C@H](N)[C@@H](O)[C@@H]1O.O=S(=O)(O)O.O=S(=O)(O)O.O=S(=O)(O)O	96.5
14) CC\12CCC(=O)\C=C1CCC3C2CCC4(C)C3CCC4(O)C#C (centres undefined)	99.6
15) c1ccc2c(Cc3c[nH]c4ccccc34)c[nH]c2c1	93.3
16) NC(=O)Nc1sc(-c2ccc(F)cc2)cc1C(N)=O	103
17) C[C@]12Cc3cn[nH]c3C[C@@H]1CC[C@@H]1[C@@H]2CC[C@@]2(C)[C@H]1CC[C@]2(C)O	114
18) CC[C@]12CC[C@H]3[C@@H](CCC/4=C/C(=O)CC[C@H]34)[C@@H]1CC[C@@]2(O)C#C	75.4
19) C=C1C(=O)[C@@]23C(CC[C@@H]1[C@H]2O)[C@@]12CO[C@]3(O)[C@@H](O)[C@@H]1C(C)(C)CC[C@@H]2O (some centres undefined)	121

###

Catalogue of cell viability values
System: SEM cells
Test: cell viability relative to DMSO control; higher = less cytotoxic
Settings: RPMI 5 mM glucose + 10% dialyzed FBS; 48 h; 46.1 µM
readout.kind: cell viability (%)

1) C[N]1C=C(C2=CC=CC=C12)\C3=C(\C(=O)NC3=O)C4=C[N](C5CCN(CC5)CC6=NC=CC=C6)C7=C4C=CC=C7	117
2) Cc1nn(C)c(COc2ccc(N3CCN([S+](=O)([O-])N(C)C)CC3)cc2)c1-c1cccc2c(CCCOc3cccc4ccccc34)c(C(=O)O)n(CCN3CCOCC3)c12	21.4
3) OC1=CC=C(C=C1)\C2=C\OC3=C(C(=CC(=C3)O)O)C2=O	59
4) N\C1=N\C2=C(N=C[N]2COCCO)C(=O)N1	44.8
